Tested on: PfAP2-G AP2 domain (GST-tagged)
PROCEDURE_TEXT: gcPBM binding intensity (ln(normalized median fluorescence intensity)); higher = stronger DNA binding
In all, about 25,000 sequences were measured (“ln(normalized median fluorescence intensity)”: median about 10, highest 2% from about 12 on). Many of the other results were omitted from the sample, so the highest values are more common in it than they were.
A collection of sequences and their measured gcPBM binding intensity (ln)

AGATAAAATATATACACACACATAAATACGTACAAA [CACACA_site1086]	11.8
AAAAAAATAATAAAATGTACAAATAAACACATAAAG [XGTACX_site5102]	10.8
TTTTTTTTTTTTTTTTGTACTTATAAAAAATTTTTT [XGTACX_site1249]	11.1
TATACAATATATTTTGGTACACAAACAAAAAAATAT [XGTACX_site2522]	11.2
TGTTTGATGGTACACGTACACACCTTGCAAATATTT [CACACA_site888]	11.8
AAAAAATGAAAAAACTGTACGCAATTTTGTTTTTAT [XGTACX_site2299]	11.7
TTTTTCCAATCAGATGCATGTTACTATATTTGGTTC [TGCATGCA_site52]	9.96
ATTTTTTAAATGAGGCGTACACAAAAATATAATTAC [XGTACX_site7087]	11.7

Problem: Give recorded gcPBM binding intensity (ln). TAAAATTTTTGTTTTTGTACGAAACATCAATTTTAC [XGTACX_site4963]
Solution: 10.7

Problem: Note down gcPBM binding intensity (ln) recorded for AAATATTTTGCATACACATGCAAATATTTTTTACAT [TGCATGCA_site554]
Solution: 9.8

Problem: Specify reported gcPBM binding intensity (ln) for the sequence shown: TTTGATGGTACACGTACACACCTTGCAAATATTTTT [CACACA_site4645]
Solution: 11.8

Problem: Determine its reported gcPBM binding intensity (ln): TAAAATTTTGTTTGTTGTACTTATTTTCGTGTCAAC [XGTACX_site8277]
Solution: 11.6

Problem: Specify reported gcPBM binding intensity (ln) for the sequence shown: AAAAAAAAATTAATATATAAAAGGATATATATATAT [GTGCAC_negctrl_site449]
Solution: 9.77

Problem: Please indicate gcPBM binding intensity (ln) recorded for AAGGATATAAAAAAACGTACGTACGATAATATAATT [XGTACX_site1292]
Solution: 11.6

Problem: Return gcPBM binding intensity (ln) (reported value) for this sequence: TATACAAAATATTTTACACACACATATATATACATA [CACACA_site2616]
Solution: 10

Problem: Provide only the value of recorded gcPBM binding intensity (ln) for AAATGTTAATAAAGGTGTACACAAAATAAAAAAAAT [XGTACX_site463]
Solution: 11.7

----------
System: PfAP2-G AP2 domain (GST-tagged)
PROCEDURE_TEXT: gcPBM binding intensity (ln(normalized median fluorescence intensity)); higher = stronger DNA binding
The full ranking holds about 25,000 sequences; the median of “ln(normalized median fluorescence intensity)” is about 10, and the highest 2% start at about 12. For the sample, the highest values were picked, then their nearest neighbours and some sequences at random.
OBSERVED_PROPERTY: gcPBM binding intensity (ln)
Reply with the value as a number alone.

# annotated cases, reported gcPBM binding intensity (ln) shown
TATTTTGAAAATAAAAGTACAAATTTTATATTTAAA [XGTACX_site3238]	11.1
TTTTTTTTTTTTTAATGTACCCATGGGCACATAGGT [XGTACX_site486]	11.4
TTGTAGATATTTATATGTACGAATTTATAAATATAG [XGTACX_site3611]	11.1
AAAAAAATAACAAAGTGTACTTTTATATTTTACATA [XGTACX_site8954]	11.3

Problem: Report gcPBM binding intensity (ln) for GTATATATATATAAAAGTACATGTTATGAAAAAAAA [XGTACX_site5410]
Solution: 11.3

Problem: Annotate the sequence ATATATGAAAATATATGTACACAACATATAAAATAG [XGTACX_site5132] with its measured gcPBM binding intensity (ln).
Solution: 11.4

Problem: For the sequence ACATATATTTCAAAGTGTACGCACAATTTTTTTTAC [XGTACX_site6166] , report gcPBM binding intensity (ln).
Solution: 11.7

Problem: Respond only with gcPBM binding intensity (ln) recorded for AAAAAAAAAAAAAGTAGTACATAATATGTTCCTCCT [XGTACX_site8356]
Solution: 11.6

Problem: Write down gcPBM binding intensity (ln) measured for item ATAATATAACACAAATGTACAAAAAATAAATAAATA [XGTACX_site385]
Solution: 10.7

Problem: # return recorded gcPBM binding intensity (ln) for input TATATTTATAGGTACACACACACATATAAATAAATA [CACACA_site6345]
Solution: 11.3

Problem: Indicate the recorded gcPBM binding intensity (ln) value for this sequence: ATATAAATAAATATATGTACACACACAAATATATAC [XGTACX_site3950]
Solution: 11.4

Problem: Let me know recorded gcPBM binding intensity (ln) for ATAACATAAGGAAATACACACATATATAAGTATATA [CACACA_site778] , thanks.
Solution: 10

Problem: Please report the measured gcPBM binding intensity (ln) for GATTATATATGAAAATGTACAAATATATATATATAT [XGTACX_site5963]
Solution: 10.8

Problem: Entry AATAAATTATTATGTACACACATAATAGTATATATA [CACACA_site1820] needs its gcPBM binding intensity (ln) filled in; supply it.
Solution: 11.4

Problem: Quote gcPBM binding intensity (ln) reported for TATATATATTATATATGTACATATATTTTTTTTTTT [XGTACX_site127] please.
Solution: 11.2

Problem: Quickly give me recorded gcPBM binding intensity (ln) for ACGTTTTTGAGTAGTACACACACAATAAGGATGGAT [CACACA_site9044]
Solution: 11.5

Problem: Supply recorded gcPBM binding intensity (ln) for TTGTTTAAGTCACGAACACACATATATCATCAATTT [CACACA_site986] here.
Solution: 10.1

Problem: Respond only with gcPBM binding intensity (ln) recorded for GAAACGTTTTTGAGTAGTACACACACAATAAGGATG [XGTACX_site6809]
Solution: 11.7

Problem: Dear colleague, please send me the reported gcPBM binding intensity (ln) for AGTAATAAATTTTATACATGCATAAAAAAAAAAAAA [TGCATGCA_site661] when you can.
Solution: 9.72

Problem: Please report the measured gcPBM binding intensity (ln) for AAAACTATTAAATGTAGTACATAATTATTGAAATAA [XGTACX_site8716]
Solution: 11.6

Problem: Provide only the value of recorded gcPBM binding intensity (ln) for GTTTTTGAGTAGTACACACACAATAAGGATGGATTC [CACACA_site3192]
Solution: 11.5

Problem: Identify gcPBM binding intensity (ln) associated with the sequence ATAAAATAAAAGTGTACACAAGAAAATATGTTATGT [CACACA_site6033]
Solution: 11.6

Problem: Write down gcPBM binding intensity (ln) measured for item TAATTATTATTAATAGTACACACTATGGCATTTCAA [CACACA_site2488]
Solution: 11.1

----------
Test system: PfAP2-G AP2 domain (GST-tagged)
PROCEDURE_TEXT: gcPBM binding intensity (ln(normalized median fluorescence intensity)); higher = stronger DNA binding
In all, about 25,000 sequences were measured (“ln(normalized median fluorescence intensity)”: median about 10, highest 2% from about 12 on). This excerpt belongs to a sample that is enriched for the highest values.
We begin with a simple list: items and their reported gcPBM binding intensity (ln).
Lab note: jot down the number only; don't add units.

Recorded results for 6 sequences are shown here.
TAAAACATATATACAAGTACACAAAGGATATATATA [XGTACX_site3710]	11.4
AATAAATATATGTACACACACAAATATATACATATC [CACACA_site1903]	11.3
AAAAATATAATATAATGTACACATAAACAAAAAAAA [XGTACX_site3658]	11.4
ATTGTTTTTTTTTCTTTGTGGAATGAATGAATATAT [XGTACX_negctrl_site603]	10
AAGGGGAAAAAAAAAAGTACACAAACATAGGATAAT [XGTACX_site377]	11.7
AAATAAAATAAAAGCACACAAAATGTAAATAATTAT [CACACA_site2775]	10

Problem: Fill in gcPBM binding intensity (ln) for record ATATATACATATATATGTACGTATATTTTTATTTCT [XGTACX_site6198]
Solution: 11.6

Problem: Indicate the recorded gcPBM binding intensity (ln) value for this sequence: TTGCCCATTTCATTAACACACAAATGTTTATATTCT [CACACA_site4569]
Solution: 10.2

Problem: Note down gcPBM binding intensity (ln) recorded for AATTATAATAATAATAGTACATAAGTATATAAATAA [XGTACX_site2400]
Solution: 11

All values here come from the supplement of paper PMC11417369.
